# measurementDescription: folding enthalpy; higher = less favourable; fluorescence melt of hairpins on a sequencing array, two-state fit
# particulars: sodium 0.088 M
Catalogue of folding enthalpy values
A number alone suffices; assume kcal/mol.

{"seqString": "GTTGCAGGAAACTGCAAC (((((((....)))))))", "folding enthalpy [kcal/mol]": -39.6}
{"seqString": "GGAGGCGAAAGCCTCTCC ((((((....)))..)))", "folding enthalpy [kcal/mol]": -8.68}
{"seqString": "ATGTCGAAAGACAT (((((....)))))", "folding enthalpy [kcal/mol]": -19.6}

Ask: What does the record list as folding enthalpy for GTGGCGTCGAAAGACCAC (((..(((....)))))) ?
Reply: -12.9

Ask: Same lookup for GATCTACTGTAGATC ((((((...)))))) , please.
Reply: -36.8

Ask: Same lookup for GATCGAGCCTTCGATC ((((((....)))))) , please.
Reply: -39.5

Ask: Same lookup for GCCGCGCGAAAGCTCTGC ((.(.((....)).).)) , please.
Reply: -10.9

Ask: Same lookup for CGTACGGAAACGTGTACG ((((((....)))..))) , please.
Reply: -25.2

Ask: Same lookup for GCTCAGGGAAACCTGAGC (((((((....))))))) , please.
Reply: -44.7

Ask: Same lookup for GTATGTGGAAACACATGC (.(((((....))))).) , please.
Reply: -24.3

Ask: Same lookup for GCTTAGCGAAAGCAACGC ((.(.((....)).).)) , please.
Reply: -7.36

Ask: Same lookup for GATAACCGAAAGGTGATC (((.(((....))).))) , please.
Reply: -27.9

---

# measurementDescription: folding enthalpy; higher = less favourable; fluorescence melt of hairpins on a sequencing array, two-state fit
# particulars: sodium 0.088 M
Use y when the recorded folding enthalpy is no lower than -20 kcal/mol; use n when it is lower.

These solved cases illustrate the format of a correct answer.
{"seqString": "GCGGATTCCGC ((((...))))", "cat": "n"}
{"seqString": "GGTTCCGGAAACGAAACC ((((.((....)).))))", "cat": "n"}
{"seqString": "GATCCATCCATGGATC ((((((....))))))", "cat": "n"}
{"seqString": "AACAGGAAACTGTT (((((....)))))", "cat": "y"}
{"seqString": "GCATAGGGAAACCCATGC ((((.((....)).))))", "cat": "n"}

Now take the following sequence into account.
Ask: Can GTTTTGCCGAAAGGCAAC (((..(((....)))))) be said to have folding enthalpy at or above -20 kcal/mol?
Reply: y

---

# measurementDescription: folding enthalpy; higher = less favourable; fluorescence melt of hairpins on a sequencing array, two-state fit
# particulars: sodium 0.088 M
quantityName: folding enthalpy (kcal/mol)
A number alone suffices; assume kcal/mol.

Field: example entries. Status: answers known.
{"seqString": "GGTTCGGGAAACCGAACC (((((((....)))))))", "folding enthalpy [kcal/mol]": -38.2}
{"seqString": "GCCACCGCGAAAGCGGGC (((..(((....))))))", "folding enthalpy [kcal/mol]": -7.35}
{"seqString": "GATCCGTACCCGGATC ((((((....))))))", "folding enthalpy [kcal/mol]": -39}
{"seqString": "GGCGGCCCGAAAGGGGCC (((..(((....))))))", "folding enthalpy [kcal/mol]": -7.67}
{"seqString": "GTGATAGAAATATCAC ((((((....))))))", "folding enthalpy [kcal/mol]": -32.9}

Ask: What does the record list as folding enthalpy for GCGGTAATCCGC ((((....)))) ?
Reply: -24.7

Ask: Same lookup for GCCCGGCGAAAGCAAGGC (((..((....))..))) , please.
Reply: -18.6

Ask: Same lookup for GAGCGTACGAAAGTACTC (((..(((....)))))) , please.
Reply: -13.4

Ask: Same lookup for GATCCCAACGGGGATC ((((((....)))))) , please.
Reply: -30.9

Ask: Same lookup for GGCGACCGAAAGGTGCC (((.(((....)))))) , please.
Reply: -20.9
